Data origin: PubChem BioAssay AID743279

# experiment: qHTS for Inhibitors of Inflammasome Signaling: IL-1-beta AlphaLISA Primary Screen; further: on the % scale 0 is the no-effect control and ±100 the full control effect
# assay_setup: THP-1 LPS/ATP IL-1B secretion, 16 h; at 57.5 µM
# Description: Inflammasomes are a set of intracellular multi-protein complexes that enable autocatalytic activation of inflammatory caspases and drive the innate immune response to counter harmful agents. […] A qHTS assay, based on AlphaLISA technology, was developed to screen the Molecular Libraries Small Molecule Repository (MLSMR) to look for novel inflammasome inhibitors. The assay detects IL-1B using AlphaLISA anti-IL-1B acceptor and donor beads. […]
Screen size: about 360,000 compounds; about 17,000 (4.7%) were called active. Another 5% or so got no clear call; they are omitted. No stated cut-off is given here; in the data, active means activity change below about -50%; inconclusive means mostly about -30% to -49%; inactive means weaker than that. Shown is part of a subset that was picked to be rich in actives.
Form entry, call: pick from active, inactive

Worked cases, answers included:
compound	qualitative_label
Cc1c(NC(=O)CSc2cccc3cccnc23)c(=O)n(-c2ccccc2)n1C	active
Cc1ccc(C(=O)CSc2ccccc2C(=O)O)cc1	inactive
COc1ccc(S(=O)(=O)NC(=O)C2(C)CCN2C(=O)COc2ccc(Cl)cc2)cc1 (stereo not drawn)	inactive

Query string: # fetch the recorded call for CC(Sc1nc2c([nH]c3ccccc32)c(=O)n1C)c1ccccc1 (stereo not drawn) here
Result string: inactive

Query string: # fetch the recorded call for Cc1ccc(SC(CC(=O)c2ccc(C(C)(C)C)cc2)C(=O)O)cc1 (stereo not drawn) here
Result string: active

Query string: # fetch the recorded call for CCCCNC(=O)OC1CC2CC1[C@H]1CCCCN1C2=O (stereo partly drawn) here
Result string: inactive

Query string: # fetch the recorded call for C=CCNc1nc(N)c([N+](=O)[O-])c(NC2CCCCC2)n1 here
Result string: inactive

Query string: # fetch the recorded call for COc1ccc(C(=O)N2CCCCC2c2cc(C(=O)Nc3ccccc3)no2)cc1 (stereo not drawn) here
Result string: inactive

====

# experiment: qHTS for Inhibitors of Inflammasome Signaling: IL-1-beta AlphaLISA Primary Screen
# assay_setup: THP-1 LPS/ATP IL-1B secretion, 16 h; at 57.5 µM, active compounds read low
The campaign covered roughly 360,000 compounds. About 17,000 (4.7%) were called active. Not shown: some 5% with an inconclusive outcome. What follows is part of a selection rich in actives, with near analogues and random picks from the rest.
measurement_name: activity change

For orientation, consider the following solved cases.
molecule	value_observed
CCCCn1c(SCC(=O)NCC2CCCO2)nc2ccc(N3CCOCC3)cc2c1=O (centres undefined)	-7.71% (inactive)
O=C(NC1CCCCCC1)c1cccnc1Sc1ccc(Cl)cc1	1.6% (inactive)

Query string: Item COc1ccc(Cl)cc1-n1c(=S)sc2c(=O)n(-c3ccc(F)cc3)c(SCC(=O)O)nc21 has what recorded activity change?
Result string: 14.4% (inactive)

Query string: Item Cn1c(=O)c2c(nc(SCC(=O)Nc3ccccc3N3CCCCC3)n2C)n(C)c1=O has what recorded activity change?
Result string: -57.3% (active)

====

# experiment: qHTS for Inhibitors of Inflammasome Signaling: IL-1-beta AlphaLISA Primary Screen
# assay_setup: THP-1 LPS/ATP IL-1B secretion, 16 h; at 57.5 µM
Out of some 360,000 compounds screened, about 17,000 (4.7%) were called active. About 5% were inconclusive and are not listed. No stated cut-off is given here; in the data, active means activity change below about -50%; inconclusive means mostly about -30% to -49%; inactive means weaker than that. This excerpt belongs to a sample that is enriched for actives.
Form entry, call: pick from Y for active, N for inactive

Worked cases, answers included:
molecule	qualitative_label
Cc1ccc(C)c(C(O)c2ncc(-c3cccc4ccccc34)[nH]2)c1 (stereo not given)	N
O=C(O)CSc1nccn1-c1cccc(Cl)c1	N

Query string: # fetch the recorded call for CSc1ncc(C(=O)NCCCc2ccccc2)c(C)n1 here
Result string: N

Query string: # fetch the recorded call for O=C(Cc1ccc(NC(=O)C2CCCN(C(=O)C3CCCCC3)C2)cc1)Nc1cccc(C(=O)N2CCCCC2)c1 (stereo not given) here
Result string: N

Query string: # fetch the recorded call for Cc1nn(-c2ncc(C(F)(F)F)cc2Cl)c(=O)n1-c1ccccc1 here
Result string: N

====

# experiment: qHTS for Inhibitors of Inflammasome Signaling: IL-1-beta AlphaLISA Primary Screen
# assay_setup: THP-1 LPS/ATP IL-1B secretion, 16 h; at 57.5 µM, active compounds read low
# Description: Inflammasomes are a set of intracellular multi-protein complexes that enable autocatalytic activation of inflammatory caspases and drive the innate immune response to counter harmful agents. […] A qHTS assay, based on AlphaLISA technology, was developed to screen the Molecular Libraries Small Molecule Repository (MLSMR) to look for novel inflammasome inhibitors. The assay detects IL-1B using AlphaLISA anti-IL-1B acceptor and donor beads. […]
The whole screen tested about 360,000 compounds, of which about 17,000 (4.7%) were called active. Another 5% or so got no clear call; they are omitted. The list comes from a sample in which actives are over-represented; it also holds close analogues and randomly drawn compounds.
So basically: is activity change under -10%? Then criterion met. Not under? Then criterion not met.

Worked cases, answers included:
molecule	qualitative_label
CS(=O)(=O)N(CC(=O)N1CCN(Cc2ccccc2)CC1)c1ccc2c(c1)OCCO2	criterion not met
CCC(=O)N1CCC(C)(C(=O)Nc2cc(OC)c(OC)c(OC)c2)C1 (stereo not given)	criterion not met
Nc1cc(C(=O)N2CCN(c3ccccc3Cl)CC2)ccc1N1CC2CC(C1)c1cccc(=O)n1C2 (stereo not given)	criterion not met
Cc1ccc(Nc2nc(-c3ccc(O)cc3O)cs2)nc1	criterion met
Cc1ccc(N(Cc2cc(=O)[nH]c3ccccc23)C(=O)CCl)cc1	criterion met
CN(C)c1nc(=Nc2cccc(Cl)c2)ss1	criterion not met
O=C1NC[C@@H](c2ccccc2)OC(=O)[C@H](Cc2ccc(F)cc2)CC/C=C/C[C@H]1CC(=O)N(CCO)Cc1ccccc1	criterion met
CC(=O)c1ccc(S(=O)(=O)N(C)CCCC(=O)N(C)Cc2ccccc2F)cc1	criterion not met
CC(=O)N1CCN(C(=O)c2cc(-c3ccc(C)o3)nc3ccccc23)CC1	criterion not met

Continue with the next molecule.
Query string: Lab note: confirm whether the reported activity change for this molecule is below -10%, equality not counting. molecule: Nc1c(C(=O)c2cccs2)sc2nsc(SCCN3CCCCC3)c12
Result string: criterion met

====

Listed next: entries and their corresponding activity change.
# experiment: qHTS for Inhibitors of Inflammasome Signaling: IL-1-beta AlphaLISA Primary Screen
# assay_setup: THP-1 LPS/ATP IL-1B secretion, 16 h; at 57.5 µM, active compounds read low
Out of some 360,000 compounds screened, about 17,000 (4.7%) were called active. Roughly 5% stayed inconclusive and do not appear here. For the sample, actives were picked, then their nearest neighbours and some compounds at random.

For orientation, consider the following solved cases.
Cc1cccc(NC(=O)c2ccc([N+](=O)[O-])o2)c1 -102% (active)
CN1C(=O)c2ccc(C(=O)Nc3ccc(Br)cn3)cc2C1=O -0.113% (inactive)

Query string: Item CCOC(=O)c1ccc2c(c1)nc(C)n2CC has what recorded activity change?
Result string: -16.9% (inactive)

====

# experiment: qHTS for Inhibitors of Inflammasome Signaling: IL-1-beta AlphaLISA Primary Screen
# assay_setup: THP-1 LPS/ATP IL-1B secretion, 16 h; at 57.5 µM, active compounds read low
The campaign covered roughly 360,000 compounds. About 17,000 (4.7%) were called active. About 5% were inconclusive and are not listed. What follows is part of a selection rich in actives, with near analogues and random picks from the rest.
Listed next: entries and their corresponding activity change.

For orientation, consider the following solved cases.
molecule	measurement_name	value_observed
COc1ccc(OC)c(C(=O)c2ccc(Cl)cc2)c1	activity change	1.55% (inactive)
O=C(CN1C(=O)/C(=C\c2ccccc2F)SC1=S)Nc1nc2ccccc2s1	activity change	-3.88% (inactive)
CC(C)(C(=O)N1CCC1(C)C(=O)NS(=O)(=O)c1ccc(Br)cc1)c1ccccc1 (centres undefined)	activity change	17% (inactive)

Alright, here's another molecule for you.
Query string: Item Cc1c(NC(=O)C(C)OC(=O)c2ccccc2O)c(=O)n(-c2ccccc2)n1C (centres undefined) has what recorded activity change?
Result string: 2.66% (inactive)

====

# experiment: qHTS for Inhibitors of Inflammasome Signaling: IL-1-beta AlphaLISA Primary Screen
# assay_setup: THP-1 LPS/ATP IL-1B secretion, 16 h; at 57.5 µM
In all, about 360,000 compounds went through this assay and about 17,000 (4.7%) were called active. Roughly 5% stayed inconclusive and do not appear here. Rule as the data show it: active = activity change below about -50%; inconclusive = mostly about -30% to -49%; inactive = weaker than that. For the sample, actives were picked, then their nearest neighbours and some compounds at random.
Form entry, call: pick from active, inactive

Worked cases, answers included:
compound	qualitative_label
COC(=O)c1ccc2nc(C3CCCCC3)c(Cc3cccc(F)c3)n2c1	inactive
CCCCN1Cc2c(nc3cc(-c4ccccc4)[nH]n3c2=O)C1=O	inactive
O=C1C(=O)N(c2ccccc2)C(c2ccccc2)C1c1ccccc1 (stereo not given)	inactive
Cc1cc(C)c2[nH]c(=O)c(C(c3nnnn3Cc3ccc4c(c3)OCO4)N3CCCC3)cc2c1 (stereo not given)	inactive
COc1cccc(OCc2cc(C(=O)N3CCN(C(=O)c4ccco4)CC3)no2)c1	inactive

Query string: # fetch the recorded call for Cc1ccc(N2C(=O)CC(N3CCSCC3)C2=O)c(C)c1 (stereo not given) here
Result string: inactive

Query string: # fetch the recorded call for Cc1cc(C)nc(-n2ncc3c2CC(c2ccc(C(C)C)cc2)CC3=O)n1 (stereo not given) here
Result string: active

Query string: # fetch the recorded call for COc1ccc(C(=O)NCC(c2ccco2)N2CCc3ccccc32)cc1OC (stereo not given) here
Result string: inactive

Query string: # fetch the recorded call for Cc1ccc(NC(=O)C(c2ccccc2)N2CCN(C(=O)c3ccco3)CC2)cc1 (stereo not given) here
Result string: inactive

Query string: # fetch the recorded call for O=C(Nc1cccnc1)c1ccc(Cl)cc1[N+](=O)[O-] here
Result string: inactive

Query string: # fetch the recorded call for CCC(c1nnnn1Cc1ccco1)N(CCc1ccccc1)Cc1cc2cccc(C)c2[nH]c1=O (stereo not given) here
Result string: inactive

Query string: # fetch the recorded call for CCOC(=O)C1=CC[C@@H](c2ccncc2)N(S(=O)(=O)c2ccc(C)cc2)C1 here
Result string: inactive

Query string: # fetch the recorded call for CCOC(=O)[C@]12CCC=C1N(CCC1=CCCCC1)C(=O)[C@H](CC(=O)NCc1ccc(C)o1)C2 here
Result string: inactive

Query string: # fetch the recorded call for O=C(NCc1ccccc1)c1onc(CSc2ccncc2)c1C(=O)NCc1ccccc1 here
Result string: inactive

Query string: # fetch the recorded call for Cc1ccc(SC(=O)COc2ccc(C)c(C)c2)cc1 here
Result string: active

Query string: # fetch the recorded call for CC(C)c1cccc(-c2csc(C(O)c3ccccc3)n2)c1 (stereo not given) here
Result string: inactive

Query string: # fetch the recorded call for Cc1nc2c(OCC(=O)C(C)(C)C)cccn2c1N(C)Cc1cccs1 here
Result string: inactive
